Test: in vivo
Details: mouse, iv, 10 mg/kg, Cmin

{"columns": ["Molecule", "concentration at 24 h"],
 "data": [
  ["O=C(O)[C@@H]1Cc2c([nH]c3ccccc23)[C@@H](c2ccc(Cl)cc2Cl)N1 [Compound 1, reference compound]", "164 nM"],
  ["O=C(O)[C@@H]1Cc2c([nH]c3cc(F)ccc23)[C@@H](c2ccc(Cl)cc2Cl)N1 [Compound 20c]", "100 nM"]
]}

====

Assay: in vivo
Details: mouse, iv, 10 mg/kg, plasma concentration

{"columns": ["Compound", "concentration at 8 h (nM)"],
 "data": [
  ["O=C(O)[C@@H]1Cc2c([nH]c3ccccc23)[C@@H](c2ccc(Cl)cc2Cl)N1 [Compound 1, reference compound]", 510],
  ["O=C(O)[C@@H]1Cc2c([nH]c3cc(F)ccc23)[C@@H](c2ccc(Cl)cc2Cl)N1 [Compound 20c]", 1400]
]}

====

Assay: in vivo
Conditions: mouse, iv, 10 mg/kg, plasma concentration
Readout Type: concentration at 4 h

{"columns": ["Compound", "Recorded Measurement"],
 "data": [
  ["O=C(O)[C@@H]1Cc2c([nH]c3cc(F)ccc23)[C@@H](c2ccc(Cl)cc2Cl)N1 [Compound 20c]", "1400 nM"],
  ["O=C(O)[C@@H]1Cc2c([nH]c3ccccc23)[C@@H](c2ccc(Cl)cc2Cl)N1 [Compound 1, reference compound]", "660 nM"]
]}

====

Experiment: in vivo
Details: mouse, po, 40 mg/kg, plasma concentration
Collected concentration at 24 h values appear next to each entry.

{"columns": ["Compound", "concentration at 24 h (nM)"],
 "data": [
  ["O=C(O)[C@@H]1Cc2c([nH]c3cc(F)ccc23)[C@@H](c2ccc(Cl)cc2Cl)N1 [Compound 20c]", 600],
  ["O=C(O)[C@@H]1Cc2c([nH]c3ccccc23)[C@@H](c2ccc(Cl)cc2Cl)N1 [Compound 1, reference compound]", 640]
]}

====

Collected concentration at 0.25 h values appear next to each entry.
Experiment: in vivo
Details: mouse, iv, 10 mg/kg, plasma concentration
Procedure: 3. Pharmacokinetics of 1 in mice Pharmacokinetic analysis of 1 in mice was performed by Pharmaron (Beijing, China). Three mice each (23 ± 1 g) were used for oral (40 mg/kg, gavage, conscious) and for IV (10 mg/kg, lateral tail vein with anesthesia) administration. The vehicle for both routes wa s 20% DMSO, 60% PEG400 and 20% SBE-β-CD (30% w/v) in water. […] Quantitation was performed by triple-quad LC-MS.
Readout Type: concentration at 0.25 h (µM)

{"columns": ["Molecule", "Recorded Measurement"],
 "data": [
  ["O=C(O)[C@@H]1Cc2c([nH]c3cc(F)ccc23)[C@@H](c2ccc(Cl)cc2Cl)N1 [Compound 20c]", 30.9],
  ["O=C(O)[C@@H]1Cc2c([nH]c3ccccc23)[C@@H](c2ccc(Cl)cc2Cl)N1 [Compound 1, reference compound]", 27.1]
]}

====

Test: in vivo
Conditions: mouse, po, 40 mg/kg, plasma concentration
Collected concentration at 8 h values appear next to each entry.

{"columns": ["Compound", "Unit Of Measure", "concentration at 8 h"],
 "data": [
  ["O=C(O)[C@@H]1Cc2c([nH]c3cc(F)ccc23)[C@@H](c2ccc(Cl)cc2Cl)N1 [Compound 20c]", "µM", 3.9],
  ["O=C(O)[C@@H]1Cc2c([nH]c3ccccc23)[C@@H](c2ccc(Cl)cc2Cl)N1 [Compound 1, reference compound]", "µM", 2.4]
]}
